Answer each item with its documented viability, T/C.
System: 991263-137-R1-J2-PDC complex spheroid viability;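 also: spheroids exposed to compounds for 7 days before readout; 100% = DMSO vehicle control viability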
assay: Anticancer human tumor 991263-137-R1-J2-PDC patient-derived colon adenocarcinoma cell line growth inhibition [POLQ]
condition parameters: second compound 0.316 µM; first compound 1 µM; stronger effect = lower value
Answers are plain numbers, in %.

Known results for compounds:
Nc1ccn(C2OC(CO)C(O)C2(F)F)c(=O)n1 (configuration not stated) + Cc1cccc(N(C)C(=O)C2C(O)CCN2c2nc(C)cc(C(F)(F)F)c2C#N)c1 ... 52.6
COc1cc2cc(C(=O)CCC(=O)O)sc2cc1OC + Nc1ccc(C#CCN(C(=O)Cc2ncc(C(F)(F)F)cc2C(F)(F)F)c2ccc(F)cc2)nn1 ... 104
C=CC(=O)N1CCN(c2nc(=O)n(-c3c(C)ccnc3C(C)C)c3nc(-c4c(O)cccc4F)c(F)cc23)C(C)C1 (configuration not stated) + COC1C(OC(N)=O)C(O)C(Oc2ccc3c(O)c(NC(=O)c4ccc(O)c(CC=C(C)C)c4)c(=O)oc3c2C)OC1(C)C ... 98.8
COc1cccc(OCCCN)c1-c1cc(Nc2cnc(C#N)cn2)n[nH]1 + Cc1cccc(N(C)C(=O)C2C(O)CCN2c2nc(C)cc(C(F)(F)F)c2C#N)c1 ... 47

Provide viability, T/C values for the following items, in order.
1. Nc1ccn(C2OC(CO)C(O)C2(F)F)c(=O)n1 (configuration not stated) + COC1C(OC(N)=O)C(O)C(Oc2ccc3c(O)c(NC(=O)c4ccc(O)c(CC=C(C)C)c4)c(=O)oc3c2C)OC1(C)C
2. COc1cc2cc(C(=O)CCC(=O)O)sc2cc1OC + Cc1cccc(N(C)C(=O)C2C(O)CCN2c2nc(C)cc(C(F)(F)F)c2C#N)c1
3. O=c1[nH]cc(F)c(=O)[nH]1 + Nc1ccc(C#CCN(C(=O)Cc2ncc(C(F)(F)F)cc2C(F)(F)F)c2ccc(F)cc2)nn1
4. CNCc1ccc(-c2[nH]c3cc(F)cc4c3c2CCNC4=O)cc1 + Nc1ccc(C#CCN(C(=O)Cc2ncc(C(F)(F)F)cc2C(F)(F)F)c2ccc(F)cc2)nn1
5. O=c1[nH]cc(F)c(=O)[nH]1 + Cc1cccc(N(C)C(=O)C2C(O)CCN2c2nc(C)cc(C(F)(F)F)c2C#N)c1
6. COc1cccc(OCCCN)c1-c1cc(Nc2cnc(C#N)cn2)n[nH]1 + Nc1ccc(C#CCN(C(=O)Cc2ncc(C(F)(F)F)cc2C(F)(F)F)c2ccc(F)cc2)nn1

[54.1, 102, 93, 101, 83.3, 40.7]

Provide viability, T/C values for the following items, in order.
1. CCc1cc2c(N3CCc4c(cc(Cn5ccnc5)cc4-c4cn(C)nc4C(F)(F)F)C3=O)ccnc2c(OC)n1 + COC1C(OC(N)=O)C(O)C(Oc2ccc3c(O)c(NC(=O)c4ccc(O)c(CC=C(C)C)c4)c(=O)oc3c2C)OC1(C)C
2. CCc1c2c(nc3ccc(O)cc13)-c1cc3c(c(=O)n1C2)COC(=O)[C@]3(O)CC + Nc1ccc(C#CCN(C(=O)Cc2ncc(C(F)(F)F)cc2C(F)(F)F)c2ccc(F)cc2)nn1

[104, 25.6]
